# target desc: Free fatty acid receptor 1 (Homo sapiens, UniProt O14842)
# Sequence (O14842 whole entry): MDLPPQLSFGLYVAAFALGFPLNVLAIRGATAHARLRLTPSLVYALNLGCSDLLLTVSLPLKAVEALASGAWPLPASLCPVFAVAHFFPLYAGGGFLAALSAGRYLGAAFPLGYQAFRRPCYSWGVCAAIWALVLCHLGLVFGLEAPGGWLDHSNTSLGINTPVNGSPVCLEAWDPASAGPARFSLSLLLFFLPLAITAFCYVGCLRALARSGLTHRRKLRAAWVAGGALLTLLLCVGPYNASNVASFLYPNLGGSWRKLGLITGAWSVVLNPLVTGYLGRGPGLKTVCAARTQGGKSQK
# assay overview: Agonist activity at human GPR40 transfected in CHO cells by calcium flux assay
pEC50: −log10 of the molar value.
Would you please tag the item Criterion met when its pEC50 is 7 or above, and Criterion not met when it is below?

Here's what some known entries look like.
O=C(O)C[C@@H]1COc2cc3c(cc21)OC[C@H](c1ccc(Cl)c(Cl)c1)O3 | Criterion not met
O=C(O)C[C@@H]1COc2cc3c(cc21)OC[C@H](c1cccc(Cl)c1)O3 | Criterion not met

Incoming: Hello, I need to know if Cc1cccc(C)c1-c1cccc([C@@H]2COc3cc4c(cc3O2)OC[C@H]4CC(=O)O)c1 has measured pEC50 not below 7. Thanks!
Outgoing: Criterion met

----------
# target desc: Free fatty acid receptor 1 (Homo sapiens, UniProt O14842)
# assay overview: Agonist activity at human GPR40 transfected in CHO cells by calcium flux assay
As shown below, each of these molecules has a reported EC50 value.
Include the unit right after the number.

O=C(O)C[C@@H]1COc2cc3c(cc21)OC[C@H](c1cccc(C(F)(F)F)c1)O3 | 30.4 nM
CS(=O)(=O)CCCOc1ccc(-c2cc(C3COc4cc5c(cc4O3)OC[C@H]5CC(=O)O)ccc2F)c(Cl)c1 (some centres undefined) | 125 nM
Cc1ccccc1-c1cccc([C@@H]2COc3cc4c(cc3O2)OC[C@H]4CC(=O)O)c1 | 39.3 nM
Cc1cc(OCCCS(C)(=O)=O)ccc1-c1cccc(C2COc3cc4c(cc3O2)OC[C@H]4CC(=O)O)c1 (some centres undefined) | 123 nM
Cc1ccccc1-c1cccc([C@H]2COc3cc4c(cc3O2)OC[C@H]4CC(=O)O)c1 | 19.1 nM

Incoming: // lookup EC50 for O=C(O)C[C@@H]1COc2cc3c(cc21)OCC(c1cc(F)cc(C(F)(F)F)c1)O3 (some centres undefined)
Outgoing: 63.7 nM

Incoming: Using the record for Cc1cc(F)ccc1-c1cccc(C2COc3cc4c(cc3O2)OC[C@H]4CC(=O)O)c1 (some centres undefined) , report its EC50.
Outgoing: 35.9 nM

Incoming: Which value of EC50 has been reported for O=C(O)C[C@@H]1COc2cc3c(cc21)OCC(c1cccc(-c2ccccc2C(F)(F)F)c1)O3 (some centres undefined) in the records?
Outgoing: 74.5 nM

Incoming: Find the recorded EC50 belonging to Cc1ccc(C)c(-c2cccc(C3COc4cc5c(cc4O3)OC[C@H]5CC(=O)O)c2)c1 (some centres undefined) and report it.
Outgoing: 88 nM

----------
Reported CL/F values for a set of molecules
# assay overview: Plasma clearance in cynomolgus monkey at 6 mg/kg, po
# Assay type: ADME, organism-based, Macaca fascicularis
# Parameters: dose 6 mg/kg, route oral
Could you kindly put the unit after your number?

Use the examples below as a reference point.
O=C(O)C[C@@H]1COc2cc3c(cc21)OC[C@@H](c1cccc(Br)c1)O3 | 0.04 L/h/kg
O=C(O)C[C@@H]1COc2cc3c(cc21)OC[C@@H](c1cccc(Cl)c1)O3 | 0.05 L/h/kg

// switching to the query molecule
Incoming: Quick one: CL/F of O=C(O)C[C@@H]1COc2cc3c(cc21)OC[C@@H](c1cccc(C(F)(F)F)c1)O3 ?
Outgoing: 0.1 L/h/kg

----------
# target desc: Free fatty acid receptor 1 (Homo sapiens)
# assay overview: Agonist activity at human GPR40 transfected in CHO cells by calcium flux assay
quantity kind: pEC50
// scale note: pEC50 = -log10(conc_M); give the bare number

Cc1ccc(-c2cccc(C3COc4cc5c(cc4O3)OC[C@H]5CC(=O)O)c2)c(C)c1 (stereo partly drawn) | 7.41
CS(=O)(=O)CCCOc1ccc(-c2ccc(F)c(C3COc4cc5c(cc4O3)OC[C@H]5CC(=O)O)c2)c(Cl)c1 (stereo partly drawn) | 7.25
O=C(O)C[C@@H]1COc2cc3c(cc21)OC[C@@H](c1ccc(Cl)c(Cl)c1)O3 | 7.80
O=C(O)C[C@@H]1COc2cc3c(cc21)OC[C@@H](c1cccc(C(F)(F)F)c1)O3 | 7.95
CS(=O)(=O)CCCOc1ccc(-c2cccc([C@@H]3COc4cc5c(cc4O3)OC[C@H]5CC(=O)O)c2)c(Cl)c1 | 7.02

Incoming: Quick one: pEC50 for Cc1cc(OCCCS(C)(=O)=O)cc(C)c1-c1ccc(F)c([C@@H]2COc3cc4c(cc3O2)OC[C@H]4CC(=O)O)c1 ?
Outgoing: 7.33

Incoming: Consider the compound Cc1cc(C)cc(-c2cccc(C3COc4cc5c(cc4O3)OC[C@H]5CC(=O)O)c2)c1 (stereo partly drawn) and give its measured pEC50.
Outgoing: 6.88

----------
Recorded AUC by entry
# assay overview: AUC in cynomolgus monkey at 6 mg/kg, po
# Format: ADME, organism-based, Macaca fascicularis
# Parameters: dose 6 mg/kg, route oral
# run conditions: plasma
Dear colleague, please return just the value in µg·h/mL, with no unit written.

Answered examples (2):
O=C(O)C[C@@H]1COc2cc3c(cc21)OC[C@@H](c1cccc(Br)c1)O3 | 136
O=C(O)C[C@@H]1COc2cc3c(cc21)OC[C@@H](c1cccc(C(F)(F)F)c1)O3 | 54.7

Next up:
Incoming: Looking for the measured AUC of O=C(O)C[C@@H]1COc2cc3c(cc21)OC[C@@H](c1cccc(Cl)c1)O3 , can you help?
Outgoing: 126

----------
# Tested on: Mus musculus
# assay overview: Antidiabetic activity in high fat feasted ICR mouse assessed as inhibition of blood glucose excursion at 50 mg/kg, po administered 15 mins prior to dextrose challenge measured for 120 mins by OGTT relative to control
# Assay type: functional
quantity kind: inhibition in vivo at 50 mg/kg (%)
Please reply with the bare figure in % and do not write the unit itself.

Worked set:
O=C(O)C[C@@H]1COc2cc3c(cc21)OC[C@@H](c1ccc(Cl)c(Cl)c1)O3 | 4.9
O=C(O)C[C@@H]1COc2cc3c(cc21)OC[C@@H](c1cccc(Br)c1)O3 | 4.9
O=C(O)C[C@@H]1COc2cc3c(cc21)OC[C@@H](c1cccc(C(F)(F)F)c1)O3 | 13.3

Incoming: Query the reported inhibition in vivo at 50 mg/kg for Mus musculus; item: O=C(O)C[C@@H]1COc2cc3c(cc21)OC[C@@H](c1cccc(Cl)c1)O3
Outgoing: 11

----------
# assay overview: Plasma clearance in rat at 5 mg/kg, po
# Assay type: ADME, organism-based
# Set-up: dose 5 mg/kg, route oral
quantity kind: CL/F (mL/min/kg)
Numeric only. Scale: mL/min/kg

O=C(O)C[C@@H]1COc2cc3c(cc21)OC[C@@H](c1ccc(Cl)c(Cl)c1)O3 | 0.167
O=C(O)C[C@@H]1COc2cc3c(cc21)OC[C@@H](c1cccc(C(F)(F)F)c1)O3 | 0.167
O=C(O)C[C@@H]1COc2cc3c(cc21)OC[C@@H](c1cccc(Br)c1)O3 | 0.117

Incoming: Fill in the blank: the reported CL/F of O=C(O)C[C@@H]1COc2cc3c(cc21)OC[C@@H](c1cccc(Cl)c1)O3 is ____.
Outgoing: 0.0833

----------
# assay overview: AUC in beagle dog at 1 mg/kg, po
# Format: ADME, organism-based, Canis lupus familiaris
# Parameters: dose 1 mg/kg, route oral
# run conditions: plasma
quantity kind: AUC (ng·h/mL)
Answer format: numeric, ng·h/mL implied, no suffix.

O=C(O)C[C@@H]1COc2cc3c(cc21)OC[C@@H](c1cccc(Br)c1)O3 | 30600
O=C(O)C[C@@H]1COc2cc3c(cc21)OC[C@@H](c1cccc(Cl)c1)O3 | 35600

Incoming: Query (compound): O=C(O)C[C@@H]1COc2cc3c(cc21)OC[C@@H](c1cccc(C(F)(F)F)c1)O3 ; field requested: AUC
Outgoing: 47400

----------
# assay overview: Plasma clearance in beagle dog at 1 mg/kg, po
# Format: ADME, organism-based, Canis lupus familiaris
# Set-up: dose 1 mg/kg, route oral
quantity kind: CL/F (mL/min/kg)
Response body: numeric value in mL/min/kg, unit text excluded.

O=C(O)C[C@@H]1COc2cc3c(cc21)OC[C@@H](c1cccc(Cl)c1)O3 | 0.333

Let us move to another entry and its CL/F.
Incoming: // lookup CL/F for O=C(O)C[C@@H]1COc2cc3c(cc21)OC[C@@H](c1cccc(Br)c1)O3
Outgoing: 0.5

----------
This listing pairs molecules with measured AUC.
# assay overview: AUC in rat at 5 mg/kg, po
# Format: ADME, organism-based
# Set-up: dose 5 mg/kg, route oral
# run conditions: plasma

Record excerpt, results attached:
O=C(O)C[C@@H]1COc2cc3c(cc21)OC[C@@H](c1ccc(Cl)c(Cl)c1)O3 | 337 µg·h/mL
O=C(O)C[C@@H]1COc2cc3c(cc21)OC[C@@H](c1cccc(Br)c1)O3 | 530 µg·h/mL
O=C(O)C[C@@H]1COc2cc3c(cc21)OC[C@@H](c1cccc(Cl)c1)O3 | 666 µg·h/mL

Incoming: # AUC lookup, item O=C(O)C[C@@H]1COc2cc3c(cc21)OC[C@@H](c1cccc(C(F)(F)F)c1)O3
Outgoing: 427 µg·h/mL
